test system: T-Jurkat cells; test: Dye-based proliferation assay VPD450 (flow cytometry), T-Jurkat; format: cell-based, human; details: Homo sapiens, 48 h
pEC50: −log10 of the molar value.
OBSERVED_PROPERTY: pEC50

1) COc1c(C)c2c(c(O)c1C/C=C(\C)CCC(=O)Nc1ccc3ocnc3c1)C(=O)OC2 [A6, N-(benzo[d]oxazol-5-yl) mycophenolate]; 4.86

I: COc1c(C)c2c(c(O)c1C/C=C(\C)CCC(=O)Nc1nc3ccc(C(F)(F)F)cc3s1)C(=O)OC2
II: COc1c(C)c2c(c(O)c1C/C=C(\C)CCC(=O)Nc1nc3ccccc3o1)C(=O)OC2 [A2, N-(benzo[d]oxazol-2-yl) mycophenolate]
III: COc1c(C)c2c(c(O)c1C/C=C(\C)CCC(=O)Nc1nc3cc(C)c(C)cc3s1)C(=O)OC2
IV: COc1c(C)c2c(c(O)c1C/C=C(\C)CCC(=O)Nc1nc3ccc(F)cc3s1)C(=O)OC2
Q: Rank items: key pEC50, increasing. Please write the labels in the order that was asked for.
Ans: IV, III, I, II
(IV: 4.20, III: 4.57, I: 4.90, II: 6.07)

* * *

Measured melting point by item

Use these answered entries as a reference point.
1. COc1c(C)c2c(c(O)c1C/C=C(\C)CCC(=O)Nc1nc3ccccc3[nH]1)C(=O)OC2 [A3]; 253 to 255 °C (dec.)
2. COc1c(C)c2c(c(O)c1C/C=C(\C)CCC(=O)Nc1nc3ccc(Cl)cc3s1)C(=O)OC2 [A12]; 261 to 264 °C (dec.)

Q: I'd like to know its melting point. The compound in question is COc1c(C)c2c(c(O)c1C/C=C(\C)CCC(=O)Nc1nc3ccc(Br)cc3s1)C(=O)OC2 [A13]
Ans: 265 to 267 °C (dec.)

Q: I'd like to know its melting point. The compound in question is COc1c(C)c2c(c(O)c1C/C=C(\C)CCC(=O)Nc1nc3ccccc3o1)C(=O)OC2 [A2, N-(benzo[d]oxazol-2-yl) mycophenolate]
Ans: 175 to 177 °C

Q: I'd like to know its melting point. The compound in question is COc1c(C)c2c(c(O)c1C/C=C(\C)CCC(=O)Nc1ccc3scnc3c1)C(=O)OC2 [A5, N-(benzo[d]thiazol-5-yl) mycophenolate]
Ans: 114 to 117 °C

Q: I'd like to know its melting point. The compound in question is COc1c(C)c2c(c(O)c1C/C=C(\C)CCC(=O)Nc1nc3c(OC)cccc3s1)C(=O)OC2 [A16]
Ans: 165 to 168 °C

Q: I'd like to know its melting point. The compound in question is COc1c(C)c2c(c(O)c1C/C=C(\C)CCC(=O)Nc1nc3ccc(F)cc3s1)C(=O)OC2 [A11]
Ans: 232 to 236 °C (dec.)

Q: I'd like to know its melting point. The compound in question is COc1c(C)c2c(c(O)c1C/C=C(\C)CCC(=O)Nc1nc3ccc(C)cc3s1)C(=O)OC2 [A9]
Ans: 257 to 260 °C (dec.)

Q: I'd like to know its melting point. The compound in question is COc1c(C)c2c(c(O)c1C/C=C(\C)CCC(=O)Nc1nc3cc(C)c(C)cc3s1)C(=O)OC2 [A10]
Ans: 246 to 247 °C (dec.)
